assay: TurboSol solubility evaluation in physiological saline; type: physicochemical; conditions: 1 μM; HB-PS+0.3% DMSO
Listed here: items and their measured Average LSU (×1000).

>>> reportedmeasurement("C[C@]12CC=C3C=C4CC[C@@H](N5CCCC5)C[C@]45CCC3(O5)[C@@H]1CC[C@@H]2c1ccc2ccncc2c1")
"3.7 LSU (×1000)"
>>> reportedmeasurement("C[C@]12CC=C3C=C4CC[C@@H](O)C[C@]45CC[C@]3(O5)[C@@H]1CC[C@@H]2c1ccc2ccncc2c1")
"5.8 LSU (×1000)"
>>> reportedmeasurement("C[C@]12CC=C3C=C4CC[C@@H](N5C[C@H](O)[C@@H](O)C5)C[C@]45CC[C@]3(O5)[C@@H]1CC[C@@H]2c1ccc2ccncc2c1")
"4.7 LSU (×1000)"

Input: Using known records, supply Average LSU (×1000) for `C[C@]12CC=C3C=C4CC[C@@H](N5CC[C@@H](N)C5)C[C@]45CC[C@]3(O5)[C@@H]1CC[C@@H]2c1ccc2ccncc2c1`
Output: 2.2 LSU (×1000)

Input: Using known records, supply Average LSU (×1000) for `C[C@]12CC=C3C=C4CC[C@@H](N5CC(N)C5)C[C@]45CC[C@]3(O5)[C@@H]1CC[C@@H]2c1ccc2ccncc2c1`
Output: 2.8 LSU (×1000)

---

assay: Pharmacokinetic profile in mice (plasma, LC-MS/MS); settings: CD-1, mouse, plasma, po, 10 mg/kg
measuredProperty: AUC(0-inf) (ng·h/mL)
The figure you give is taken to be in ng·h/mL; do not add the unit.

>>> reportedmeasurement("C[C@]12CC=C3C=C4CC[C@@H](N5C[C@H](O)[C@@H](O)C5)C[C@]45CC[C@]3(O5)[C@@H]1CC[C@@H]2c1ccc2ccncc2c1")
1390

Input: Using known records, supply AUC(0-inf) for `C[C@]12CC=C3C=C4CC[C@@H](O)C[C@]45CC[C@]3(O5)[C@@H]1CC[C@@H]2c1ccc2ccncc2c1`
Output: 3970

Input: Using known records, supply AUC(0-inf) for `C[C@]12CC=C3C=C4CC[C@@H](N5CC(N)C5)C[C@]45CC[C@]3(O5)[C@@H]1CC[C@@H]2c1ccc2ccncc2c1`
Output: 2970

Input: Using known records, supply AUC(0-inf) for `C[C@]12CC=C3C=C4CC[C@@H](N5CC[C@@H](N)C5)C[C@]45CC[C@]3(O5)[C@@H]1CC[C@@H]2c1ccc2ccncc2c1`
Output: 1060

---

tested on: MOLM-14; assay: Half-maximal growth inhibition (GI50), MOLM-14; type: cell-based; conditions: Homo sapiens, 240 h, AML, M5, MLL-AF9, read-out: GI50 (nM), day 10
measuredProperty: GI50 (nM)
The figure you give is taken to be in nM; do not add the unit.

Solved cases (2 shown):
>>> reportedmeasurement("C[C@]12CC=C3C=C4CC[C@@H](N5CCC5)C[C@]45CCC3(O5)[C@@H]1CC[C@@H]2c1ccc2ccncc2c1 [Compound F]")
3
>>> reportedmeasurement("C[C@]12CC=C3C=C4CC[C@@H](N5CC[C@@H](N)C5)C[C@]45CC[C@]3(O5)[C@@H]1CC[C@@H]2c1ccc2ccncc2c1 [Compound B]")
31

Input: Using known records, supply GI50 for C[C@]12CC=C3C=C4CC[C@@H](N5CC(N)C5)C[C@]45CC[C@]3(O5)[C@@H]1CC[C@@H]2c1ccc2ccncc2c1 [Compound C]
Output: 21

Input: Using known records, supply GI50 for C[C@]12CC=C3C=C4CC[C@@H](O)C[C@]45CC[C@]3(O5)[C@@H]1CC[C@@H]2c1ccc2ccncc2c1 [Compound A]
Output: 6

Input: Using known records, supply GI50 for C[C@]12CC=C3C=C4CC[C@@H](N5C[C@H](O)[C@@H](O)C5)C[C@]45CC[C@]3(O5)[C@@H]1CC[C@@H]2c1ccc2ccncc2c1 [Compound D]
Output: 6

---

target: Tachykinin NK1 (Homo sapiens); construct: Eurofins Panlabs; test: Panlab assay, Tachykinin NK1; format: binding; conditions: reference standard; Cheng and Prusoff
Sequence (P25103 whole entry): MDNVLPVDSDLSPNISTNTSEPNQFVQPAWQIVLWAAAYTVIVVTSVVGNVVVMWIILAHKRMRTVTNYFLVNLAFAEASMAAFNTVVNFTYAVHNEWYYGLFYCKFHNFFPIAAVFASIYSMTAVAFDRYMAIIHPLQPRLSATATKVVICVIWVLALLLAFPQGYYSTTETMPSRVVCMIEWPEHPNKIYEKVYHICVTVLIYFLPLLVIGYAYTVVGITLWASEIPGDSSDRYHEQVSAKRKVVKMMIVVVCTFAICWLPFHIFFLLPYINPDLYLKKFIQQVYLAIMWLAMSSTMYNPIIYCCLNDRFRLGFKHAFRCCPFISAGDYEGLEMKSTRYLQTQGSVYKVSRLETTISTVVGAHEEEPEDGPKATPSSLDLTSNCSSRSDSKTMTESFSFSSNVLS
measuredProperty: Ki (nM)
The figure you give is taken to be in nM; do not add the unit.

Input: Using known records, supply Ki for Ic1ccccc1CN[C@@H]1C2CCN(CC2)[C@@H]1C(c1ccccc1)c1ccccc1 (racemic) [L-703,606, reference compound]
Output: 2.6

---

target: hNav1.5 (INa) (Homo sapiens); construct: expressed in transfected cells; host or cells: CHO or HEK293 cells; experiment: INa current, PatchXpress 7000A planar voltage clamp; type: cell-based; conditions: pulsing rate 3 Hz
Sequence (Q14524 whole entry): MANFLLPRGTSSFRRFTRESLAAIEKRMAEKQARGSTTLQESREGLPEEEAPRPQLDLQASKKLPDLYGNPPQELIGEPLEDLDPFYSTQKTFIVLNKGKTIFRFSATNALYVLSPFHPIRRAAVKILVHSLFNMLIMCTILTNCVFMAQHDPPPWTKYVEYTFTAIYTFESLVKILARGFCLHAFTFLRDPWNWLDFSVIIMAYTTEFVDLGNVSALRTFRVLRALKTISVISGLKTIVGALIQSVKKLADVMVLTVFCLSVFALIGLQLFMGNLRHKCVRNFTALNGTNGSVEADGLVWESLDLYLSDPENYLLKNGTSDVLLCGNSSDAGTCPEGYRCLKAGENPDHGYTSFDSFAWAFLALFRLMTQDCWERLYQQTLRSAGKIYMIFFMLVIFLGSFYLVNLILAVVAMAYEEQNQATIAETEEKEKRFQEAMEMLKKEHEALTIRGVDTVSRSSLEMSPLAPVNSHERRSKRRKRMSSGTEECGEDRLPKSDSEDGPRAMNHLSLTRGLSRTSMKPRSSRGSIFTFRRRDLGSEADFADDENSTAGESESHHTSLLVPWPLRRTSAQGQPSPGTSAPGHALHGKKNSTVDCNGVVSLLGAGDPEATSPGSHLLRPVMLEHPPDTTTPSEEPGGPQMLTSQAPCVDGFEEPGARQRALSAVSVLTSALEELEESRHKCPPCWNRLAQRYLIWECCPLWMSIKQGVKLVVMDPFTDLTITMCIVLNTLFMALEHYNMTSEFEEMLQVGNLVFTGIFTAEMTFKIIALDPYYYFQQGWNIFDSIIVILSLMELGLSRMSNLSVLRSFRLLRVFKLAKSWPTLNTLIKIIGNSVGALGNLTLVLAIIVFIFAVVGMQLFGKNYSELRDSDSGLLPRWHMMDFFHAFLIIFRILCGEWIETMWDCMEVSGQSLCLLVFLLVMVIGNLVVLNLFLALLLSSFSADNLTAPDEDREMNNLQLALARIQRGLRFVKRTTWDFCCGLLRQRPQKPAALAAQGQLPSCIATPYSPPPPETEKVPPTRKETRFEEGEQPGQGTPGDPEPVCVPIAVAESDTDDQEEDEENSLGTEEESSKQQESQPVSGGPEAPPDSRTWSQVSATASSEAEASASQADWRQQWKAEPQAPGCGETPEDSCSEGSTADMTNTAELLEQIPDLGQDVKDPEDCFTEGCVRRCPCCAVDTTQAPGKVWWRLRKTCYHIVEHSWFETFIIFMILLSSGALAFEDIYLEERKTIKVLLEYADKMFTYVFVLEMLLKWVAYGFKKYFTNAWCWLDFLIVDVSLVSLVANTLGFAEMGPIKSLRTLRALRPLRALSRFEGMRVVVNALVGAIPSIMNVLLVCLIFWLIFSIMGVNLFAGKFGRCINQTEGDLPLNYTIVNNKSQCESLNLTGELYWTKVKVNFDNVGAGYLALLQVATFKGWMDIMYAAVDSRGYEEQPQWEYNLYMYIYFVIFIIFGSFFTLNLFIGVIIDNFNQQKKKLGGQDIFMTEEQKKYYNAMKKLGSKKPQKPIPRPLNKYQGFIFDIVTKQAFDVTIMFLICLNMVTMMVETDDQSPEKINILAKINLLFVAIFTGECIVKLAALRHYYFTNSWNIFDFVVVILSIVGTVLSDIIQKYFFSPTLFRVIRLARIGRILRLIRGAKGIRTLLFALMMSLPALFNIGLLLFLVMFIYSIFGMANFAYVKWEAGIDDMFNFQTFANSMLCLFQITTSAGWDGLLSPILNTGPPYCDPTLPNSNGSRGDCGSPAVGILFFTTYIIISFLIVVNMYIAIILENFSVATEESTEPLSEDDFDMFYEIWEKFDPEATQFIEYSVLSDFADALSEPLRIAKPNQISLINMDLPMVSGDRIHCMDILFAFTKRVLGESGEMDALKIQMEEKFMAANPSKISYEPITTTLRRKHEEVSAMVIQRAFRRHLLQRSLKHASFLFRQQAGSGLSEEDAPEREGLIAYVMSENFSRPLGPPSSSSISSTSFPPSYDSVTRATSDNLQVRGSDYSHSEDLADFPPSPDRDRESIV
measuredProperty: IC50 (µM)
The figure you give is taken to be in µM; do not add the unit.

Input: Using known records, supply IC50 for `C[C@]12CC=C3C=C4CC[C@@H](N5CCC5)C[C@]45CCC3(O5)[C@@H]1CC[C@@H]2c1ccc2ccncc2c1`
Output: 6.5

---

Listed here: items and their measured inhibition at 10 µM.
biological target: hERG potassium channel (Homo sapiens, UniProt Q12809); assay: in vitro; settings: human, Individual Data Points (% Inhibition), hERG
Sequence (Q12809 whole entry): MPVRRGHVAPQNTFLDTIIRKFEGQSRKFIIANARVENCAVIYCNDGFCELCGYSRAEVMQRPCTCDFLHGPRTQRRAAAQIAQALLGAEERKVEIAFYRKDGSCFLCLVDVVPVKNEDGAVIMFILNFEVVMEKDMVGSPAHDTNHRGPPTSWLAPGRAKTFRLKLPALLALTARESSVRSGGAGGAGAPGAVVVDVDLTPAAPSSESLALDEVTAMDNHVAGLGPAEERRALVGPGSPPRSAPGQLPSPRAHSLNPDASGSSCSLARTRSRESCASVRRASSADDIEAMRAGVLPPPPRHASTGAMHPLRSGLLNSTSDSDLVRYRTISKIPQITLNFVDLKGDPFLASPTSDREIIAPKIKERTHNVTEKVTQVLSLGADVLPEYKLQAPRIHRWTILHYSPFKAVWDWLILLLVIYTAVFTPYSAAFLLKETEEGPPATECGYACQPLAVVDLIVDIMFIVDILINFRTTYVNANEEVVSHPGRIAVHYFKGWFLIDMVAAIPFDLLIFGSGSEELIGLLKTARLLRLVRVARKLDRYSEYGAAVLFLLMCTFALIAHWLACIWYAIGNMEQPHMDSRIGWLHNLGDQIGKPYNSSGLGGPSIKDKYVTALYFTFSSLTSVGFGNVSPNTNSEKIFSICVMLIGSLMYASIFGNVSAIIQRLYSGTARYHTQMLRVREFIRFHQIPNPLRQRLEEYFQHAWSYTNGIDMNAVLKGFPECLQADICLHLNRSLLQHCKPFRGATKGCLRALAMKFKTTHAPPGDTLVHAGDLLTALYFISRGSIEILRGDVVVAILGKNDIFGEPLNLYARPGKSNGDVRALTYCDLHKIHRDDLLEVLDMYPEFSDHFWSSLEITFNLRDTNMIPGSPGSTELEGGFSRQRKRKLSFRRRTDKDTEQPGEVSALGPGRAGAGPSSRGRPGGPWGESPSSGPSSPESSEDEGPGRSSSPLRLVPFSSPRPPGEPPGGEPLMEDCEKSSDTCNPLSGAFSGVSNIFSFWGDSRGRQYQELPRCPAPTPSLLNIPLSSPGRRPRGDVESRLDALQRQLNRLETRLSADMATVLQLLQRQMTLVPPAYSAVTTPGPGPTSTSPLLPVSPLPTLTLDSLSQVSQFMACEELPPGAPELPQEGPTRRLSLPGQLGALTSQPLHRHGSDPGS
The figure you give is taken to be in %; do not add the unit.

Solved cases (3 shown):
>>> reportedmeasurement("C[C@]12CC=C3C=C4CC[C@@H](N5C[C@H](O)[C@@H](O)C5)C[C@]45CC[C@]3(O5)[C@@H]1CC[C@@H]2c1ccc2ccncc2c1 [Compound D]")
71.6
>>> reportedmeasurement("C[C@]12CC=C3C=C4CC[C@@H](N5CC(N)C5)C[C@]45CC[C@]3(O5)[C@@H]1CC[C@@H]2c1ccc2ccncc2c1 [Compound C]")
45.8
>>> reportedmeasurement("C[C@]12CC=C3C=C4CC[C@@H](O)C[C@]45CC[C@]3(O5)[C@@H]1CC[C@@H]2c1ccc2ccncc2c1 [Compound A]")
17.6

Continue with the molecule presented below.
Input: Using known records, supply inhibition at 10 µM for C[C@]12CC=C3C=C4CC[C@@H](N5CCCC5)C[C@]45CCC3(O5)[C@@H]1CC[C@@H]2c1ccc2ccncc2c1 [Compound E]
Output: 93.8

---

assay: Pharmacokinetic profile in mice (plasma, LC-MS/MS); details: IV 3 mg/kg, CD-1 mice
measuredProperty: ½ life (h)
The figure you give is taken to be in h; do not add the unit.

Solved cases (3 shown):
>>> reportedmeasurement("C[C@]12CC=C3C=C4CC[C@@H](N5C[C@H](O)[C@@H](O)C5)C[C@]45CC[C@]3(O5)[C@@H]1CC[C@@H]2c1ccc2ccncc2c1 [Compound D]")
6.60
>>> reportedmeasurement("C[C@]12CC=C3C=C4CC[C@@H](O)C[C@]45CC[C@]3(O5)[C@@H]1CC[C@@H]2c1ccc2ccncc2c1 [Compound A]")
4.08
>>> reportedmeasurement("C[C@]12CC=C3C=C4CC[C@@H](N5CC(N)C5)C[C@]45CC[C@]3(O5)[C@@H]1CC[C@@H]2c1ccc2ccncc2c1 [Compound C]")
14.7

Continue with the compound presented below.
Input: Using known records, supply ½ life for C[C@]12CC=C3C=C4CC[C@@H](N5CC[C@@H](N)C5)C[C@]45CC[C@]3(O5)[C@@H]1CC[C@@H]2c1ccc2ccncc2c1 [Compound B]
Output: 18.7

---

Listed here: items and their measured Vd.
assay: Pharmacokinetic profile in mice (plasma, LC-MS/MS); settings: CD-1, mouse, plasma, iv, 3 mg/kg
The figure you give is taken to be in L/kg; do not add the unit.

>>> reportedmeasurement("C[C@]12CC=C3C=C4CC[C@@H](N5C[C@H](O)[C@@H](O)C5)C[C@]45CC[C@]3(O5)[C@@H]1CC[C@@H]2c1ccc2ccncc2c1 [Compound D]")
5.41
>>> reportedmeasurement("C[C@]12CC=C3C=C4CC[C@@H](O)C[C@]45CC[C@]3(O5)[C@@H]1CC[C@@H]2c1ccc2ccncc2c1 [Compound A]")
1.12
>>> reportedmeasurement("C[C@]12CC=C3C=C4CC[C@@H](N5CC(N)C5)C[C@]45CC[C@]3(O5)[C@@H]1CC[C@@H]2c1ccc2ccncc2c1 [Compound C]")
26.4

Continue with the compound presented below.
Input: Using known records, supply Vd for C[C@]12CC=C3C=C4CC[C@@H](N5CC[C@@H](N)C5)C[C@]45CC[C@]3(O5)[C@@H]1CC[C@@H]2c1ccc2ccncc2c1 [Compound B]
Output: 26.6

---

molecular target: Dopamine Transporter (Homo sapiens)
Sequence (Q01959 whole entry): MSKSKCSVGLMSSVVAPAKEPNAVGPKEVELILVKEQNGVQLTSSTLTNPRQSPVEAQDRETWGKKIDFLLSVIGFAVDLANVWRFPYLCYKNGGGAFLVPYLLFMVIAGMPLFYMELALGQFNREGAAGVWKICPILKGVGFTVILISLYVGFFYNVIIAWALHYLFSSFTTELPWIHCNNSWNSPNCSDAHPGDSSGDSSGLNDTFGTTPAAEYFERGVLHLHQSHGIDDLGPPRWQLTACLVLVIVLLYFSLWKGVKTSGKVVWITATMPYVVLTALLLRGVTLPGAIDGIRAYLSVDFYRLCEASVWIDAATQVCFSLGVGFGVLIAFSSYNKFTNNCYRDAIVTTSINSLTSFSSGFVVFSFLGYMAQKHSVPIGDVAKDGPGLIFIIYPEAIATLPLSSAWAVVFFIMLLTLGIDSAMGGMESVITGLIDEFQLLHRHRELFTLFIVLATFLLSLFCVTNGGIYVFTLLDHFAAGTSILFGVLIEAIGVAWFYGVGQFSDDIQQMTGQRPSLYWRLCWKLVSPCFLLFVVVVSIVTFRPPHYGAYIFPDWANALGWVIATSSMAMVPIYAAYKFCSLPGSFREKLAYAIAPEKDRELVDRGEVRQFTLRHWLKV
measuredProperty: IC50

Input: Using known records, supply IC50 for `C[C@]12CC=C3C=C4CC[C@@H](O)C[C@]45CC[C@]3(O5)[C@@H]1CC[C@@H]2c1ccc2ccncc2c1`
Output: 4.9 µM

---

Listed here: items and their measured inhibition at 30 µM.
target: hERG potassium channel (Homo sapiens); assay: in vitro; conditions: human, Individual Data Points (% Inhibition), hERG
Put down the number, then write its unit next to it.

>>> reportedmeasurement("C[C@]12CC=C3C=C4CC[C@@H](N5CC(N)C5)C[C@]45CC[C@]3(O5)[C@@H]1CC[C@@H]2c1ccc2ccncc2c1")
"66.9%"
>>> reportedmeasurement("C[C@]12CC=C3C=C4CC[C@@H](N5CCCC5)C[C@]45CCC3(O5)[C@@H]1CC[C@@H]2c1ccc2ccncc2c1")
"97.7%"
>>> reportedmeasurement("C[C@]12CC=C3C=C4CC[C@@H](N5C[C@H](O)[C@@H](O)C5)C[C@]45CC[C@]3(O5)[C@@H]1CC[C@@H]2c1ccc2ccncc2c1")
"97.9%"

Continue with the molecule presented below.
Input: Using known records, supply inhibition at 30 µM for `C[C@]12CC=C3C=C4CC[C@@H](N5CC[C@@H](N)C5)C[C@]45CC[C@]3(O5)[C@@H]1CC[C@@H]2c1ccc2ccncc2c1`
Output: 89.4%
